target system: CSNK1A1L (human) (UniProt Q8N752)
Sequence (Q8N752 whole entry, looked up): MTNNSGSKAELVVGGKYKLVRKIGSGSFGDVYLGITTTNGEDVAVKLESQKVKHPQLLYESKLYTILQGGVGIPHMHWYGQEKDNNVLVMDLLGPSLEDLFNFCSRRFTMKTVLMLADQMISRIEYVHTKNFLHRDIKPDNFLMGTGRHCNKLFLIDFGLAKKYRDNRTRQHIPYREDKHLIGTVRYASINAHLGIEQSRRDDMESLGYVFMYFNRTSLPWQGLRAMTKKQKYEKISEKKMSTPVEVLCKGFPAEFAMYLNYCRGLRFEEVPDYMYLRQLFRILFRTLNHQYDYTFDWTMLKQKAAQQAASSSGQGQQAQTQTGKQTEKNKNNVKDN
method: KINOMEscan competition binding
recorded conditions: compound 10.0 µM
observable: kinase still bound, per cent of control (%)
Numbers only here, please. The scale is %.

Please report kinase still bound, per cent of control for the following compound: CN1C(=O)c2ccccc2N(C)c2nc(Nc3ccc(N4CCC(O)CC4)cc3)ncc21
98

Please report kinase still bound, per cent of control for the following compound: O=C1NC(=O)/C(=C/c2c[nH]c(=O)c(-c3ccc(N4CCNCC4)nc3)c2)S1
100

Please report kinase still bound, per cent of control for the following compound: COc1cc(N2CCN(C)CC2)ccc1Nc1ncc2c(n1)Nc1ccccc1NC2=O
100

Please report kinase still bound, per cent of control for the following compound: COc1cc(N2CCN(C)CC2)ccc1Nc1ncc2c(n1)N(C)c1ccccc1N(C)C2=O
100

Please report kinase still bound, per cent of control for the following compound: CN1C(=O)c2ccccc2N(C)c2nc(NS(=O)(=O)c3ccc(N)cc3)ncc21
100

---

For each of the compounds below, state its kinase still bound, per cent of control.
target system: FLT3 (human)
method: KINOMEscan competition binding
recorded conditions: compound 10.0 µM

Please report kinase still bound, per cent of control for the following compound: COc1cc(N2CCN(C)CC2)ccc1Nc1ncc2c(n1)N1CCC[C@H]1CC(=O)N2
11%

Please report kinase still bound, per cent of control for the following compound: CN1C(=O)[C@H]2CCC[C@H]2N(C2CCCC2)c2nc(Nc3ccc(C(N)=O)cc3)ncc21
19%

Please report kinase still bound, per cent of control for the following compound: O=C1NC(=O)/C(=C/c2c[nH]c(=O)c(-c3ccc(N4CCNCC4)nc3)c2)S1
91%

Please report kinase still bound, per cent of control for the following compound: CCOc1cc(N2CCC(O)CC2)ccc1Nc1ncc2c(n1)N(C1CCCC1)CCC(=O)N2C
0%

Please report kinase still bound, per cent of control for the following compound: COc1cc(N2CCN(C)CC2)ccc1Nc1ncc2c(n1)N(C)c1sccc1C(=O)N2C
99%

Please report kinase still bound, per cent of control for the following compound: O=C1NC(=S)S/C1=C\c1ccc(-c2cncc3ccccc23)o1
16%

Please report kinase still bound, per cent of control for the following compound: CN1CCN(c2ccc(C(=O)Nc3ncc4c(n3)N(C)c3ccccc3C(=O)N4C)cc2)CC1
100%

Please report kinase still bound, per cent of control for the following compound: COc1cc(N2CCN(C)CC2)ccc1Nc1ncc2c(n1)N(C)c1ccccc1N(C)C2=O
96%

Please report kinase still bound, per cent of control for the following compound: CCN1C(=O)CCN(C2CCCC2)c2nc(Nc3ccc(N4CCC(O)CC4)cn3)ncc21
31%

---

target system: ACVR2A (human)
method: KINOMEscan competition binding
recorded conditions: compound 10.0 µM
For each of the compounds below, state its kinase still bound, per cent of control.
Numbers only here, please. The scale is %.

Please report kinase still bound, per cent of control for the following compound: CS(=O)(=O)Nc1ccc(-c2ccc(/C=C3\SC(=N)NC3=O)o2)cc1
7.5

Please report kinase still bound, per cent of control for the following compound: COc1cc(N2CCC(O)CC2)ccc1Nc1ncc2c(n1)N1CCc3cccc(c31)C(=O)N2C
100

Please report kinase still bound, per cent of control for the following compound: COc1cc(N2CCN(C)CC2)ccc1Nc1ncc2c(n1)Nc1ccccc1NC2=O
34

Please report kinase still bound, per cent of control for the following compound: CN1C(=O)c2ccccc2N(C)c2nc(Nc3ccc(N4CCC(O)CC4)cc3)ncc21
90

Please report kinase still bound, per cent of control for the following compound: CN1CCN(c2ccc(C(=O)Nc3ncc4c(n3)N(C)c3ccccc3C(=O)N4C)cc2)CC1
100

Please report kinase still bound, per cent of control for the following compound: CS(=O)(=O)Nc1ccc(-c2cc(/C=C3\SC(=N)NC3=O)c[nH]c2=O)cc1
6.6

Please report kinase still bound, per cent of control for the following compound: N=C1NC(=O)/C(=C/c2ccc(-c3cnc4ccccc4c3)o2)S1
34

Please report kinase still bound, per cent of control for the following compound: COc1cc(N2CCN(C)CC2)ccc1Nc1ncc2c(n1)N(C)c1ccccc1N(C)C2=O
92

Please report kinase still bound, per cent of control for the following compound: N=C1NC(=O)/C(=C/c2ccc(-c3cncc4ccccc34)o2)S1
8.6

Please report kinase still bound, per cent of control for the following compound: CN1C(=O)c2ccccc2N(C)c2nc(NS(=O)(=O)c3ccc(N)cc3)ncc21
100

Please report kinase still bound, per cent of control for the following compound: N=C1NC(=O)/C(=C/c2ccc(-c3ccccc3O)o2)S1
31

Please report kinase still bound, per cent of control for the following compound: N=C1NC(=O)/C(=C/c2ccc(-c3cccc4cc[nH]c34)o2)S1
25

Please report kinase still bound, per cent of control for the following compound: O=C1NC(=O)/C(=C/c2c[nH]c(=O)c(-c3ccc(N4CCNCC4)nc3)c2)S1
76

Please report kinase still bound, per cent of control for the following compound: N=C1NC(=O)/C(=C/c2c[nH]c(=O)c(-c3ccc(S(N)(=O)=O)cc3)c2)S1
25

Please report kinase still bound, per cent of control for the following compound: COc1cc(N2CCN(C)CC2)ccc1Nc1ncc2c(n1)N(C)c1sccc1C(=O)N2C
100

Please report kinase still bound, per cent of control for the following compound: CS(=O)(=O)Nc1ccc(-c2cncc(/C=C3\SC(=N)NC3=O)c2)cc1
0.9

Please report kinase still bound, per cent of control for the following compound: N=C1NC(=O)/C(=C/c2ccc(-c3csc4ccccc34)o2)S1
10

Please report kinase still bound, per cent of control for the following compound: CS(=O)(=O)Nc1ccc(-c2ncc(/C=C3\SC(=N)NC3=O)s2)cc1
18

---

target system: EPHA5 (human)
method: KINOMEscan competition binding
recorded conditions: compound 10.0 µM
observable: kinase still bound, per cent of control (%)
Numbers only here, please. The scale is %.

Please report kinase still bound, per cent of control for the following compound: CN1C(=O)c2ccccc2N(C)c2nc(NS(=O)(=O)c3ccc(N)cc3)ncc21
100

Please report kinase still bound, per cent of control for the following compound: O=C1NC(=O)/C(=C/c2c[nH]c(=O)c(-c3ccc(N4CCNCC4)nc3)c2)S1
100

Please report kinase still bound, per cent of control for the following compound: COc1cc(N2CCC(O)CC2)ccc1Nc1ncc2c(n1)N1CCc3cccc(c31)C(=O)N2C
88

Please report kinase still bound, per cent of control for the following compound: COc1cc(N2CCN(C)CC2)ccc1Nc1ncc2c(n1)N(C)c1sccc1C(=O)N2C
80

Please report kinase still bound, per cent of control for the following compound: COc1cc(N2CCN(C)CC2)ccc1Nc1ncc2c(n1)Nc1ccccc1NC2=O
90

Please report kinase still bound, per cent of control for the following compound: CN1C(=O)c2ccccc2N(C)c2nc(Nc3ccc(N4CCC(O)CC4)cc3)ncc21
100

Please report kinase still bound, per cent of control for the following compound: COc1cc(N2CCN(C)CC2)ccc1Nc1ncc2c(n1)N(C)c1ccccc1N(C)C2=O
99

Please report kinase still bound, per cent of control for the following compound: CN1CCN(c2ccc(C(=O)Nc3ncc4c(n3)N(C)c3ccccc3C(=O)N4C)cc2)CC1
100

---

target system: PRKAA1 (human)
method: KINOMEscan competition binding
recorded conditions: compound 10.0 µM
Values of kinase still bound, per cent of control strictly less than 60% map to class 1, and values of at least 60% map to class 0.

Quick check: does CN1C(=O)[C@H]2CCC[C@H]2N(C2CCCC2)c2nc(Nc3ccc(C(N)=O)cc3)ncc21 have kinase still bound, per cent of control under 60%?
class 1

Quick check: does N=C1NC(=O)/C(=C/c2ccc(-c3ccc(F)cc3O)o2)S1 have kinase still bound, per cent of control under 60%?
class 1

Quick check: does CN1CCN(c2ccc(C(=O)Nc3ncc4c(n3)N(C)c3ccccc3C(=O)N4C)cc2)CC1 have kinase still bound, per cent of control under 60%?
class 0

Quick check: does CN1C(=O)c2ccccc2N(C)c2nc(Nc3ccc(N4CCC(O)CC4)cc3)ncc21 have kinase still bound, per cent of control under 60%?
class 1

Quick check: does COc1cc(N2CCC(O)CC2)ccc1Nc1ncc2c(n1)N1CCc3cccc(c31)C(=O)N2C have kinase still bound, per cent of control under 60%?
class 0

Quick check: does COc1cc(N2CCN(C)CC2)ccc1Nc1ncc2c(n1)N(C)c1sccc1C(=O)N2C have kinase still bound, per cent of control under 60%?
class 0

Quick check: does CN1C(=O)c2ccccc2N(C)c2nc(Nc3ccc(N4CCC(O)CC4)cn3)ncc21 have kinase still bound, per cent of control under 60%?
class 1

Quick check: does N=C1NC(=O)/C(=C/c2ccc(-c3cncc4ccccc34)o2)S1 have kinase still bound, per cent of control under 60%?
class 1

Quick check: does COc1cc(N2CCN(C)CC2)ccc1Nc1ncc2c(n1)Nc1ccccc1NC2=O have kinase still bound, per cent of control under 60%?
class 0

Quick check: does CN1C(=O)c2ccccc2N(C)c2nc(NS(=O)(=O)c3ccc(N)cc3)ncc21 have kinase still bound, per cent of control under 60%?
class 0

Quick check: does COc1cc(N2CCN(C)CC2)ccc1Nc1ncc2c(n1)N(C)c1ccccc1N(C)C2=O have kinase still bound, per cent of control under 60%?
class 0
